Collected pIC50 values appear next to each entry.
target: hEXO1, Isoform1 (Homo sapiens (Human), UniProt Q9UQ84); assay: Enzymatic IC50 assay, FAM-labeled DNA oligomer substrate, fluorescence intensity (EXO1); settings: hEXO1 6 nM, substrate 30 nM, reaction time 60 minutes, 23° C.
Sequence (Q9UQ84 whole entry, canonical isoform): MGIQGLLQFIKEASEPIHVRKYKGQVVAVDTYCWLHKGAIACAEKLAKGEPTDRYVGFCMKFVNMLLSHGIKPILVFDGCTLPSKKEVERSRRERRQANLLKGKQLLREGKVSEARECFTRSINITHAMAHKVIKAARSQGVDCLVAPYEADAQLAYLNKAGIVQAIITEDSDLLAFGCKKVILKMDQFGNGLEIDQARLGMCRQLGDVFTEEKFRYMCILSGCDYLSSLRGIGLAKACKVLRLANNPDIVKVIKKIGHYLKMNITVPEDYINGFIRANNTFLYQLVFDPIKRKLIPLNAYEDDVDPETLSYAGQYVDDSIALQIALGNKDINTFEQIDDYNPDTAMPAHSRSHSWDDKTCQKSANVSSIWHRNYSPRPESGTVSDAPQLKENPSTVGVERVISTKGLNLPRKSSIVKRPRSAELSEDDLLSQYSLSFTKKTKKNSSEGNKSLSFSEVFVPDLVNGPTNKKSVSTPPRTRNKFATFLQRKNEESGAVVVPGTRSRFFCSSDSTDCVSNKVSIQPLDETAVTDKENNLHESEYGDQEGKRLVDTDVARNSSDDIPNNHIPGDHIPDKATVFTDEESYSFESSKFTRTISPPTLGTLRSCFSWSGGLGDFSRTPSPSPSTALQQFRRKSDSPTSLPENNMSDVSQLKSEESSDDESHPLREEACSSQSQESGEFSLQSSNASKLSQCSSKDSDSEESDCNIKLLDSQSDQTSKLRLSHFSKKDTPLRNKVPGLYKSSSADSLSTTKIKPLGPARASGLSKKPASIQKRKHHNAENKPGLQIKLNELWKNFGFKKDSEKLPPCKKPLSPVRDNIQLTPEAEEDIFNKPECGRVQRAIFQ
pIC50: −log10 of the molar value.

>  <MOLECULE>
COc1ccc(Cn2c(=O)c(O)c(C(=O)O)c3sccc32)cc1 [Example 12]

>  <TARGET OR TEST SYSTEM>
hEXO1, Isoform1 (Homo sapiens (Human), UniProt Q9UQ84)

>  <pIC50>
5.00 to 5.65

$$$$
>  <MOLECULE>
O=C(O)c1c(O)c(=O)n(Cc2cnn(Cc3cn4ncccc4n3)c2)c2ccsc12 [Example 138]

>  <TARGET OR TEST SYSTEM>
hEXO1, Isoform1 (Homo sapiens (Human), UniProt Q9UQ84)

>  <pIC50>
5.00 to 5.65

$$$$
>  <MOLECULE>
O=C(O)c1c(O)c(=O)n(Cc2cccc([N+](=O)[O-])c2)c2ccsc12 [Example 6]

>  <TARGET OR TEST SYSTEM>
hEXO1, Isoform1 (Homo sapiens (Human), UniProt Q9UQ84)

>  <pIC50>
5.00 to 5.65

$$$$
>  <MOLECULE>
O=C(O)c1c(O)c(=O)n(Cc2cnn(CC(=O)N3CC[C@H](O)C3)c2)c2ccsc12 [Example 154]

>  <TARGET OR TEST SYSTEM>
hEXO1, Isoform1 (Homo sapiens (Human), UniProt Q9UQ84)

>  <pIC50>
< 5.00

$$$$
>  <MOLECULE>
COc1ccc(-n2cc(Cn3c(=O)c(O)c(C(=O)O)c4sccc43)cn2)cc1 [Example 113]

>  <TARGET OR TEST SYSTEM>
hEXO1, Isoform1 (Homo sapiens (Human), UniProt Q9UQ84)

>  <pIC50>
6.12 to 6.60

$$$$
>  <MOLECULE>
O=C(O)c1c(O)c(=O)n(Cc2cnn(-c3ccccc3)c2)c2ccsc12 [Example 84]

>  <TARGET OR TEST SYSTEM>
hEXO1, Isoform1 (Homo sapiens (Human), UniProt Q9UQ84)

>  <pIC50>
6.12 to 6.60

$$$$
>  <MOLECULE>
Cn1cc(Cn2cc(Cn3c(=O)c(O)c(C(=O)O)c4sccc43)cn2)cn1 [Example 143]

>  <TARGET OR TEST SYSTEM>
hEXO1, Isoform1 (Homo sapiens (Human), UniProt Q9UQ84)

>  <pIC50>
5.00 to 5.65

$$$$
>  <MOLECULE>
N#Cc1ccc(Cn2cc(Cn3c(=O)c(O)c(C(=O)O)c4sccc43)cn2)c(C(F)(F)F)c1 [Example 146]

>  <TARGET OR TEST SYSTEM>
hEXO1, Isoform1 (Homo sapiens (Human), UniProt Q9UQ84)

>  <pIC50>
5.00 to 5.65

$$$$
>  <MOLECULE>
COc1ccc(Cn2cc(Cn3c(=O)c(O)c(C(=O)O)c4sccc43)cn2)cc1 [Example 126]

>  <TARGET OR TEST SYSTEM>
hEXO1, Isoform1 (Homo sapiens (Human), UniProt Q9UQ84)

>  <pIC50>
5.00 to 5.65

$$$$
>  <MOLECULE>
COc1cc(-c2cccn3c(Cn4c(=O)c(O)c(C(=O)O)c5sccc54)cnc23)ccn1 [Example 165]

>  <TARGET OR TEST SYSTEM>
hEXO1, Isoform1 (Homo sapiens (Human), UniProt Q9UQ84)

>  <pIC50>
5.65 to 6.12

$$$$
>  <MOLECULE>
Cc1cc(C#N)ccc1Cn1cc(Cn2c(=O)c(O)c(C(=O)O)c3sccc32)cn1 [Example 133]

>  <TARGET OR TEST SYSTEM>
hEXO1, Isoform1 (Homo sapiens (Human), UniProt Q9UQ84)

>  <pIC50>
5.00 to 5.65

$$$$
>  <MOLECULE>
O=C(O)c1c(O)c(=O)n(Cc2cnn(Cc3ccccc3)c2)c2ccsc12 [Example 122]

>  <TARGET OR TEST SYSTEM>
hEXO1, Isoform1 (Homo sapiens (Human), UniProt Q9UQ84)

>  <pIC50>
5.00 to 5.65

$$$$
>  <MOLECULE>
COc1ccc(Cn2c(=O)c(O)c(C(=O)O)c3sc(Cc4ccccc4)cc32)cc1 [Example 29]

>  <TARGET OR TEST SYSTEM>
hEXO1, Isoform1 (Homo sapiens (Human), UniProt Q9UQ84)

>  <pIC50>
5.00 to 5.65

$$$$
>  <MOLECULE>
O=C(O)c1c(O)c(=O)n(Cc2cnc3c(-c4ccncc4)cccn23)c2ccsc12 [Example 31]

>  <TARGET OR TEST SYSTEM>
hEXO1, Isoform1 (Homo sapiens (Human), UniProt Q9UQ84)

>  <pIC50>
5.00 to 5.65

$$$$
>  <MOLECULE>
CC(=O)Nc1cccc(Cn2c(=O)c(O)c(C(=O)O)c3sccc32)c1 [Example 7]

>  <TARGET OR TEST SYSTEM>
hEXO1, Isoform1 (Homo sapiens (Human), UniProt Q9UQ84)

>  <pIC50>
5.65 to 6.12

$$$$
>  <MOLECULE>
O=C(O)c1c(O)c(=O)n(Cc2cccc(Cl)c2)c2ccsc12 [Example 34]

>  <TARGET OR TEST SYSTEM>
hEXO1, Isoform1 (Homo sapiens (Human), UniProt Q9UQ84)

>  <pIC50>
5.00 to 5.65

$$$$
>  <MOLECULE>
Cn1cc(Cn2c(=O)c(O)c(C(=O)O)c3sccc32)c(-c2ccccc2)n1 [Example 158]

>  <TARGET OR TEST SYSTEM>
hEXO1, Isoform1 (Homo sapiens (Human), UniProt Q9UQ84)

>  <pIC50>
5.65 to 6.12

$$$$
>  <MOLECULE>
O=C(O)c1c(O)c(=O)n(CC2CCOC2)c2ccsc12 (stereo not drawn) [Example 42]

>  <TARGET OR TEST SYSTEM>
hEXO1, Isoform1 (Homo sapiens (Human), UniProt Q9UQ84)

>  <pIC50>
5.00 to 5.65

$$$$
